- tgt: Muscarinic acetylcholine receptor M1 (Homo sapiens)
- Sequence (P11229 whole entry): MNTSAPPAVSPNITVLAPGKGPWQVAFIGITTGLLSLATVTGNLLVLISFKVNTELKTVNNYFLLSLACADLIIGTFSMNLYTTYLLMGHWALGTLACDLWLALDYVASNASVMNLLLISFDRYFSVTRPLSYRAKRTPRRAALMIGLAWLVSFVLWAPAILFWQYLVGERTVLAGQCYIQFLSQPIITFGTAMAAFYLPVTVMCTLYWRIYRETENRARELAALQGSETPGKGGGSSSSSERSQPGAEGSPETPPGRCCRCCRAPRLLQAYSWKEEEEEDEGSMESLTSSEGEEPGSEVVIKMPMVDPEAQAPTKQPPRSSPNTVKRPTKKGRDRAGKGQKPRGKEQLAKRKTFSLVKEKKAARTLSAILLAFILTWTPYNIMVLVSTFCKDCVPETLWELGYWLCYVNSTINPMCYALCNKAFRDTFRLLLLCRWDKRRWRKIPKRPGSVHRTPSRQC
Answer each item with its documented pKi.
Give bare numbers, as −log10 of the molar value.

C[C@H]1O[C@H](C[N+](C)(C)C)COC1(C)C (relative stereo)	4.02

// next entry
Field pKi (entry C[C@@H]1OC[C@@H](C[N+](C)(C)C)O[C@H]1C.[I-] (relative stereo) ) reads 4.61

* * *

Answer each item with its documented Intrinsic activity.
- Organism: Cavia porcellus
- assay: Intrinsic activity at muscarinic M2 receptor in guinea pig atrium assessed as inhibition of electrically-stimulated muscle contraction relative to bathanecol
- Assay type: tissue-based
- setup_conditions: Cardiac atrium
Give bare numbers.

C[C@@H]1COC[C@@H](C[N+](C)(C)C)O1.[I-]	1
C[C@H]1CO[C@H](C[N+](C)(C)C)CO1.[I-] (relative stereo)	0.95

// next entry
Field Intrinsic activity (entry C[C@@H]1CO[C@H](C[N+](C)(C)C)CO1.[I-] (relative stereo) ) reads 1

* * *

- tgt: Muscarinic acetylcholine receptor M1 (Homo sapiens, UniProt P11229)
- Sequence (P11229 whole entry): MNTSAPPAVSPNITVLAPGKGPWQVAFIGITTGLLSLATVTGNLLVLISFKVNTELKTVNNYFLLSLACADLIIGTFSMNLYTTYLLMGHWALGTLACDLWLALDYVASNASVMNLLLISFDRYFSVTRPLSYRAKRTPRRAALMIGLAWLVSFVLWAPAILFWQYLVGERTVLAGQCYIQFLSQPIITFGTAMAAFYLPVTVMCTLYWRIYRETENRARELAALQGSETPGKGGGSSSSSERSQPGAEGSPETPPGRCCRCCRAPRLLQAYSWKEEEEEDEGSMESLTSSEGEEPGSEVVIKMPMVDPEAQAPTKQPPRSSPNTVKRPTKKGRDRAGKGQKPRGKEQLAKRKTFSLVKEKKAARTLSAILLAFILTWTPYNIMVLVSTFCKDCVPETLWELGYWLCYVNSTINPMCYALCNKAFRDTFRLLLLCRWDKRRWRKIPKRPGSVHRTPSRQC
observable: Ki (µM)
Give bare numbers, in µM.

Examples with their reported Ki follow.
C[C@@H]1O[C@H](C[N+](C)(C)C)COC1(C)C.[I-] (relative stereo)	67.6
C[C@@H]1OC[C@@H](C[N+](C)(C)C)OC1(C)C.[I-] (relative stereo)	38
C[C@H]1OC[C@@H](C[N+](C)(C)C)OC1(C)C.[I-] (relative stereo)	20

// next entry
Entry CC1(C)COC[C@@H](C[N+](C)(C)C)O1.[I-] : Ki on Muscarinic acetylcholine receptor M1 (Homo sapiens, UniProt P11229) = 47.9

Data provenance: ChEMBL document CHEMBL1153096
